Measurement target: P2X3 (UniProt P56373)
Sequence (P56373 1-397): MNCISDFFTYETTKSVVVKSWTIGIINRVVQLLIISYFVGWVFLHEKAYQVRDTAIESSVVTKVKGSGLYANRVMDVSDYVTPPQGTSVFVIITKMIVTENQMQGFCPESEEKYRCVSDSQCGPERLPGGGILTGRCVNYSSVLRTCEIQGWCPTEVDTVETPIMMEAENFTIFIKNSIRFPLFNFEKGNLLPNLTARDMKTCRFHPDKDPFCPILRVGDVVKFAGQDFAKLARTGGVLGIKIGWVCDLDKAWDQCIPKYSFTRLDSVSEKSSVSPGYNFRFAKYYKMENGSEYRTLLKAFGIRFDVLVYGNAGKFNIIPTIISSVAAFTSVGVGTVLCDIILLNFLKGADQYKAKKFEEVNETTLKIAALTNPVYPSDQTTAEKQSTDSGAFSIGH
Assay details: P2X3 FLIPR intracellular calcium assay
Condition context: agonist at EC75, species (human or rat) not given
Field: IC50. Provide a value for each of the compounds that follow.

Recorded IC50, per entry:
[[record]]
compound = "CCc1cnnn1-c1cc(C(=O)NCc2cnc(C)nc2)cn2c(-c3ccc(C)s3)cnc12"
endpoint_result = "1 to 100 nM"

[[record]]
compound = "COc1ncc(CNC(=O)c2cc(-n3nncc3C(F)(F)F)c3ncc(-c4ccc(C)s4)n3c2)cn1"
endpoint_result = "1 to 100 nM"

[[record]]
compound = "COC1CCN(c2cc(C(=O)N[C@@H](C)c3nnc[nH]3)cn3c(-c4ccc(C)s4)cnc23)CC1"
endpoint_result = "1 to 100 nM"

[[record]]
compound = "Cc1ccc(CNC(=O)c2cc(-n3nncc3C(C)C)c3ncc(-c4ccc(C)s4)n3c2)cn1"
endpoint_result = "> 10000 nM"

[[record]]
compound = "Cc1cnc(CNC(=O)c2cc(-n3nncc3C(F)F)c3ncc(-c4ncc(C)s4)n3c2)cn1"
endpoint_result = "1 to 100 nM"


For every listed record, write down its IC50.
1. CCCc1nnnn1-c1cc(C(=O)N[C@@H](C)c2nnc[nH]2)cn2c(-c3ccc(C)s3)cnc12
2. Cc1ccc(-c2cnc3c(-c4c(C)noc4C)cc(C(=O)N[C@@H](C)c4nnc[nH]4)cn23)s1
3. Cc1ccc(-c2cnc3c(-c4cnn(CCF)c4)cc(C(=O)N[C@@H](C)c4nnc[nH]4)cn23)s1
4. Cc1ccc(CNC(=O)c2cc(-n3nnnc3CC3CC3)c3ncc(-c4ccc(C)s4)n3c2)cn1
5. Cc1ccc(CNC(=O)c2cc(-n3nncc3C(F)F)c3ncc(-c4ccc(C)o4)n3c2)cn1
6. Cc1ccc(-c2cnc3c(N4CCC(CF)CC4)cc(C(=O)N[C@@H](C)c4nnc[nH]4)cn23)s1
7. COC1(C)CCN(c2cc(C(=O)N[C@@H](C)c3nnc[nH]3)cn3c(-c4ccc(C)s4)cnc23)C1 (stereo partly drawn)

["1 to 100 nM", "1 to 100 nM", "1 to 100 nM", "> 10000 nM", "1 to 100 nM", "1 to 100 nM", "1 to 100 nM"]
